ASSAYED_SYSTEM: BLyS (human, UniProt Q9Y275 134-285)
Sequence (Q9Y275 134-285 limits assumed): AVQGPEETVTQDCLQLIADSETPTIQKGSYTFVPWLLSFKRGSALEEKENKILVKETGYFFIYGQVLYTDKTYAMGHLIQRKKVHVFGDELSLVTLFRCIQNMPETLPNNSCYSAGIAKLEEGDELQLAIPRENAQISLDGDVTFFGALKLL
ASSAY_REMARKS: specificity phage ELISA, antigen coated at 1 ug/ml, anti-M13-HRP detection
MEASURED_ENDPOINT: binding result

scFv T1014G03 (scFv) scFv: EVQLVQSGAEVKMPGASVKLSCRVSGDTFTAYFIHWVRQAPGQGLEWMGWFNPISGTAGSAEKFRGRVAMTRDTSISTAYMELNRLTFDDTAVYYCARQHRGNTFDPWGQGTLVTVSSGGGGSGGGGSGGGGSAQSALTQPASVSGSPGQSITISCTGTSSDIGAYKYVSWYQQHPGKAPKLVIYEVSNRPSGVSSRFSGSKSGQTASLTISGLQADDEADYYCNSYQGYNTWVFGGGTKVTVLG : no binding
scFv T1014F08 (scFv) scFv: EVQLVQSGAEVKKPGASVKLSCRVSGDTFTAYFIHWVRQAPGQGPEWMGWFNPISGTAGSAARFRGRVAMTRDTSISTAYMELNRLTFDDTAVYYCARQHRGNTFDPWGKGTLVTVSSGGGGSGGGGSGGGGSALPVLTQPPSASGSPGQSVTISCTGTSSDVGGYKYVSWYQQHPGKAPKLMIYEVSMRPSGVPDRFSGSKSGNTASLTVSGLQAEDEADYYCASYAGSNNWVFGGGTKLTVLG : no binding
scFv T1014A04 (scFv) scFv: EVQLVQSGADVKRPGASVKVSCKISGDSFNAYFIHWVRQAPGQGLEWMGWFNPDSGTADSAQKFHGRVTMTRDTSSSTAFLELSRLRSDDTAVYYCVRQHRGNTFAPWGRGTMVTVSSGGGGSGGGGSGGGGSAQSVLTQPPSASGSPGQSVTISCTGTTSDVGGYNYVSWYQQHPGKAPKLMIYGVNQRPSGVPDRFSGSKSGNTASLTVSGLQAEDEADYYCSSYAGSNNWVFGGGTKLTVLG : no binding
